compounds and their reported pEC50
targetDesc: human APJ receptor (Homo sapiens)
Construct: expressed in transfected cells; host or cells: HEK293
Sequence (P35414 whole entry): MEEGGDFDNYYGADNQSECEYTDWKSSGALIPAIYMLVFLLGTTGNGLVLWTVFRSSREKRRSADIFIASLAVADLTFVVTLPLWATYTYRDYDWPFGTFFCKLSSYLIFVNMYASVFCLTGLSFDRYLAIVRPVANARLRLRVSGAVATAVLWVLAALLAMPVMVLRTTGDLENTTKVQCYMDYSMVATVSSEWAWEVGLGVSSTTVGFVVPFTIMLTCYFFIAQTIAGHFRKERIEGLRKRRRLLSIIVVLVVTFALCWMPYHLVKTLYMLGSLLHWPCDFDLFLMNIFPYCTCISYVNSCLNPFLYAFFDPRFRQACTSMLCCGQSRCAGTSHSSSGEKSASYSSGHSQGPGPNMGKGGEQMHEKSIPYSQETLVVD
assay: Intracellular cAMP accumulation assay (APJ hcAMP, HTRF)
Format: cell-based
statedConditions: read-out: hAPJ cAMP EC50 Potency range; HEK293 cells stably expressing human APJ receptor; inhibition of forskolin-mediated cAMP production; Table 1
pEC50: −log10 of the molar value.

[
  {
    "compound": "CCCCc1nc(O)c(C(=O)N2CCC(c3ncc(F)cc3F)C2)c(O)c1N(CC)c1ccccc1 (stereo not drawn)",
    "measuredAttribute": "pEC50",
    "obsValue": "8.00 to 11.00"
  },
  {
    "compound": "CCCCc1nc(O)c(C(=O)N2CCC(c3ncc(Cl)cc3F)C2)c(O)c1N(CC)c1ccccc1 (stereo not drawn)",
    "measuredAttribute": "pEC50",
    "obsValue": "8.00 to 11.00"
  }
]

Here's the next entry for you.
Qu. Requested read-out: pEC50. Entry: CCN(c1ccccc1)c1c(-c2cccc(C)c2)nc(O)c(C(=O)N2CCC(c3ncc(F)cc3F)C2)c1O (stereo not drawn)
Ans. 8.00 to 11.00
